- Tested on: RXF 393 renal
- ASSAY_NOTES: NCI tumour cell line growth inhibition, 48 h
MEASUREMENT_KIND: TGI

>>> print(df.to_string())
                                   compound  result_value
0       CCOC(=O)c1cnc2sc3ccc4ccccc4c3n2c1=O      > 100 µM
1  COc1ccc(NC(C)=O)c(C(O)CCNC(C)=O)c1 (centres undefined)      > 100 µM
2  Cn1c(N)nc(=O)c2c1N(C1OC(CO)C(O)C1O)CN2Cc1ccccc1 (centres undefined)      > 100 µM
3  O=C(NC(Cc1cnc[nH]1)C(=O)N1CCCC1)C1CCCC1 (centres undefined)      > 100 µM
4  O=C(c1ccccc1)C1C(c2ccccc2)N1S(=O)(=O)c1ccccc1 (centres undefined)      > 100 µM

Field TGI (entry C[N+](C)(C)c1cc2c(nn1)Nc1ccccc1S2 ) reads > 100 µM

Field TGI (entry COC(=O)C(COC(=O)/C=C/c1ccc(OC(C)=O)c(OC(C)=O)c1)NC(=O)/C=C/c1ccc(OC(C)=O)c(OC(C)=O)c1 (centres undefined) ) reads > 100 µM

Field TGI (entry CN1C(=O)C(O)CC1c1ccccc1C(F)(F)F (centres undefined) ) reads > 100 µM

Field TGI (entry CN(C)c1ccc(C2CC(c3ccc4ccccc4c3O)=NN2c2ccc([N+](=O)[O-])cc2[N+](=O)[O-])cc1 (centres undefined) ) reads > 100 µM

----------
# TGI per record follows
- Test system: PC-3 prostate
- ASSAY_NOTES: NCI tumour cell line growth inhibition, 48 h

                                   compound  result_value
0  CCOC(=O)C1=C(C)N(Cc2ccc(Cl)cc2Cl)C2(O)C=CC(=O)C3=C(O)c4ccccc4C(=O)C312 (centres undefined)       10.5 µM

Field TGI (entry O=C(NC(Cc1cnc[nH]1)C(=O)N1CCCC1)C1CCCC1 (centres undefined) ) reads > 100 µM

Field TGI (entry O=C1NC(N2CCCCC2)=N/C1=C\c1ccc(Cl)cc1 ) reads > 100 µM

Field TGI (entry O=C1NNC2NC(=O)C3(NN2C1=O)c1ccccc1-c1ccccc13 (centres undefined) ) reads > 100 µM

----------
# TGI per record follows
- Test system: HS 578T breast
- ASSAY_NOTES: NCI tumour cell line growth inhibition, 48 h

MOLECULE	MEASUREMENT_TARGET	TGI
CC(=[N-])N1CCC[C@@H](Nc2c3ccccc3nc3ccccc23)C1.[Cl][Pt].[NH-]CCC[NH-]	HS 578T breast	> 31.4 µM
CCN(CCCl)c1cc(CN(C)C)cc(NC(=O)C23CCC(C(=O)Nc4cc(CN(C)C)cc(N(CC)CCCl)c4)(CC2)CC3)c1	HS 578T breast	2.53 µM
C[N+](C)(C)c1cc2c(nn1)Nc1ccccc1S2	HS 578T breast	> 100 µM
O=S1(=O)OCCOS(=O)(=O)C1Cc1cccc2ccccc12	HS 578T breast	84.9 µM
CC(=O)OC[C@@]12Cc3ccc(C)c(O)c3[C@]1(C)[C@@H](OC(C)=O)[C@]1(O)[C@H]([C@@H](OC(=O)c3ccccc3)[C@@H](C)[C@H]1OC(C)=O)[C@H]2OC(C)=O	HS 578T breast	> 50 µM

// next item, TGI requested
Field TGI (entry NS(=O)(=O)CC1CC[CH-]CC1.[Cl-].[Cl-].[Cl-].[Cl-].[Cl-].[Sb+5].c1ccncc1 ) reads > 100 µM

----------
- Tested on: KM20L2 colon
- ASSAY_NOTES: NCI tumour cell line growth inhibition, 48 h
# TGI per record follows

Known results for molecules:
>>> df
                                   molecule  result_value
0  Cn1c(N)nc(=O)c2c1N(C1OC(CO)C(O)C1O)CN2Cc1ccccc1 (stereo unspecified)      > 100 µM
1  Cc1[nH]c(=O)[nH]c1C(=O)c1ccc(-n2ccnc2)cc1      > 100 µM
2            CN(C)c1snc2c1c(=O)n(C)c(=O)n2C      > 100 µM
3  C#CCN(N=O)C(=O)NCCCCC(NC(C)=O)C(=O)NCc1ccccc1 (stereo unspecified)      > 100 µM
4  COC(=O)C12OCC34C(CC5C(C)C6=CC(=O)OC6=CC5(C)C3C(O)C1O)OC(=O)C(O)C24 (stereo unspecified)       30.9 µM

// next item, TGI requested
Field TGI (entry O=c1cc(-c2ccco2)[nH]c2cc3c(cc12)OCO3 ) reads 66.8 µM

----------
- Tested on: HT29 colon
- ASSAY_NOTES: NCI tumour cell line growth inhibition, 48 h
Give 1.0 when the value for TGI is at least 10 µM. Give 0.0 when it is less.

Worked set:
COMPOUND	CLASS_ASSIGNMENT
CCCCCCCCCCCCCCCCOP(=O)(O)OCC(NC(C)=O)C(=O)O (stereo not drawn)	1.0
O=C(Nc1cccc(Cl)c1)c1cccc(NC2=C(Cl)C(=O)N(Cc3ccccc3)C2=O)c1	1.0
CN1C(=O)C(O)CC1c1ccccc1C(F)(F)F (stereo not drawn)	1.0
O=C(CCc1ccccc1)n1cccc1CO	1.0

Q: State whether the measured TGI reaches 10 µM, counting equality as reaching it, for O=C(CC(=O)c1cccc2ccccc12)C(=O)NC1C2CC3CC(C2)CC1C3 (stereo not drawn)
Result: 1.0

Q: State whether the measured TGI reaches 10 µM, counting equality as reaching it, for COc1ccc2c3c(c(C(=O)c4ccccc4)oc13)CCC2
Result: 1.0

Q: State whether the measured TGI reaches 10 µM, counting equality as reaching it, for Cn1c(N)nc(=O)c2c1N(C1OC(CO)C(O)C1O)CN2Cc1ccccc1 (stereo not drawn)
Result: 1.0

----------
- System: NCI-H522 lung
- ASSAY_NOTES: NCI tumour cell line growth inhibition, 48 h
MEASUREMENT_KIND: TGI (µM)
Just the number in µM, nothing appended.

Known results for compounds:
SMILES_STRING	MEASUREMENT_TARGET	TGI, µM
O=C(Nc1cccc(Cl)c1)c1cccc(NC2=C(Cl)C(=O)N(Cc3ccccc3)C2=O)c1	NCI-H522 lung	53
Oc1c(Cl)cc(Cl)cc1C(c1cc(Cl)cc(Cl)c1O)C(Cl)(Cl)Cl	NCI-H522 lung	26.7
O=C(Nc1cccc(-c2ccc(Cl)c(C(F)(F)F)c2)c1)C1CCN(Cc2cccc3cccnc23)CC1	NCI-H522 lung	3.68
CCOC(=O)C#Cc1c(C(=O)OCC)nnn1Cc1ccc([N+](=O)[O-])cc1	NCI-H522 lung	3.8
CCOc1ccccc1-c1nc2c(s1)C(=O)c1ccccc1C2=O	NCI-H522 lung	97.7

// next item, TGI requested
# O=C1C2CCN(CC2)C1(CO)CO with NCI-H522 lung: TGI is 33.2

----------
- Tested on: MALME-3M melanoma
- ASSAY_NOTES: NCI tumour cell line growth inhibition, 48 h
MEASUREMENT_KIND: TGI

                                   compound  measurement_kind  result_value
0    CCS(=O)(=O)CCn1c(=O)c2c(ncn2C)n(C)c1=O               TGI      > 100 µM
1  CC(C)(C)c1ccc(OCCOCCOc2ccc(C(C)(C)C)cc2S(=O)(=O)Nc2ccc([N+](=O)[O-])cc2)c(S(=O)(=O)Nc2ccc([N+](=O)[O-])cc2)c1               TGI      > 100 µM
2  CC(=O)n1cc(OP(=O)(Oc2ccccc2)Oc2ccccc2)c2ccccc21               TGI      > 100 µM
3  CN(C)c1ccc(C2CC(c3ccc4ccccc4c3O)=NN2c2ccc([N+](=O)[O-])cc2[N+](=O)[O-])cc1 (stereo not given)               TGI      > 100 µM
4  O=C(N/N=C1\C(=O)N(c2nccs2)C(=O)C(=O)C1c1nc2ccccc2s1)c1ccccc1O (stereo not given)               TGI      > 100 µM

Field TGI (entry O=S(=O)(SC1=NCCN1)c1cccc2ccccc12 ) reads > 100 µM

Field TGI (entry O=[N+]([O-])c1cc(C(F)(F)F)ccc1Sc1ccc(C(F)(F)F)cc1[N+](=O)[O-] ) reads > 100 µM

Field TGI (entry CCCCCCCCCCCCCCCCOP(=O)(O)OCC(NC(C)=O)C(=O)O (stereo not given) ) reads > 100 µM

Field TGI (entry COc1ccc2oc(C(=O)O)c3c2c1CCC3CCC(=O)O (stereo not given) ) reads > 100 µM

Field TGI (entry N=CN=CC(=S)O[C@@H]1C(=O)N2CCC[C@@]23CCCC[C@@H]13 ) reads > 12.5 µM
